protocolDescription: Biodistribution of 177Lu-labeled αMSH analogues in mice bearing B16F10 mouse melanoma
Format: in vivo, C57BL/6J mice
setupConditions: mouse, blood, iv, total radioactivity; 120 h p.i., C57BL/6J mice, B16F10 melanoma; read-out: Biodistribution, Blood
assayEndpoint: tissue uptake at 120 h (%ID/g)
Numbers only; they are read as %ID/g.

Query block: # lookup: tissue uptake at 120 h of CCCC[C@H](NC(=O)CN1CCC(NC(=O)[C@H](CCCCNC(=O)CN2CCN(CC(=O)O)CCN(CC(=O)O)CCN(CC(=O)O)CC2)NC(=O)[C@H](CCC(=O)O)NC(=O)CCCc2ccc(I)cc2)CC1)C(=O)N[C@H]1CC(=O)NCCCC[C@@H](C(N)=O)N(C)C(=O)[C@H](Cc2c[nH]c3ccccc23)NC(=O)[C@H](CCCNC(=N)N)N(C)C(=O)[C@@H](Cc2ccccc2)NC(=O)[C@H](Cc2c[nH]cn2)NC1=O [^177Lu-labeled CCZ01118, metal not drawn]
Result block: 0.01

Query block: # lookup: tissue uptake at 120 h of CCCC[C@H](NC(=O)CN1CCC(NC(=O)[C@H](CCCCNC(=O)CN2CCN(CC(=O)O)CCN(CC(=O)O)CCN(CC(=O)O)CC2)NC(=O)[C@H](CCC(=O)O)NC(=O)CCCc2ccc(I)cc2)CC1)C(=O)N[C@H]1CC(=O)NCCCC[C@@H](C(N)=O)N(C)C(=O)[C@H](Cc2c[nH]c3ccccc23)N(C)C(=O)[C@H](CCCNC(=N)N)N(C)C(=O)[C@@H](Cc2ccccc2)NC(=O)[C@H](Cc2c[nH]cn2)N(C)C1=O [^177Lu-labeled CCZ01088, metal not drawn]
Result block: 0.01

Query block: # lookup: tissue uptake at 120 h of CCCC[C@H](NC(=O)CN1CCC(NC(=O)[C@H](CCCCNC(=O)CN2CCN(CC(=O)O)CCN(CC(=O)O)CCN(CC(=O)O)CC2)NC(=O)[C@H](CCC(=O)O)NC(=O)CCCc2ccc(I)cc2)CC1)C(=O)N[C@H]1CC(=O)NCCCC[C@@H](C(N)=O)NC(=O)[C@H](Cc2c[nH]c3ccccc23)NC(=O)[C@H](CCCNC(=N)N)NC(=O)[C@@H](Cc2ccccc2)NC(=O)[C@H](Cc2c[nH]cn2)NC1=O [^177Lu-labeled CCZ01082, metal not drawn]
Result block: 0.03

---

protocolDescription: Biodistribution of 68Ga-labeled peptide in mice bearing B16F10 mouse melanoma
Format: in vivo, C57BL/6J mice
setupConditions: C57BL/6J, liver, iv, with BMS 470539 (MC1R-specific inhibitor), 0.5 mg co-injected, total radioactivity, 1 h p.i. blocked, co-injection of 0.5 mg BMS 470539, read-out: Biodistribution, Liver
assayEndpoint: tissue uptake at 1 h (%ID/g)
Numbers only; they are read as %ID/g.

Query block: # lookup: tissue uptake at 1 h of CCCC[C@H](NC(=O)CN1CCC(NC(=O)CN2CCN(CC(=O)O)CCN(CC(=O)O)CCN(CC(=O)O)CC2)CC1)C(=O)N[C@H]1CC(=O)NCCCC[C@@H](C(N)=O)N(C)C(=O)[C@H](Cc2c[nH]c3ccccc23)N(C)C(=O)[C@H](CCCNC(=N)N)N(C)C(=O)[C@@H](Cc2ccccc2)NC(=O)[C@H](Cc2c[nH]cn2)N(C)C1=O [^68Ga-labeled CCZ01099, metal not drawn]
Result block: 0.38
